- Tested on: Bacillus subtilis
- TEST NAME: cleaved RNA product abundance (RNA/gDNA barcode ratio) relative to median wild-type variant (ratio to wild type); higher = more accumulation of the downstream cleavage product
- STUDY CONDITIONS: experiment (reporter, strain, medium): exp 4a: truncated aprE reporter, strain BJT201 with 2% xylose (RNase J1 expressed); cleavage site: cggR-gapA (positions -7 to +36 mutated)
METRIC NAME: cleaved RNA product abundance
Please respond with just the number, no unit label.

ACAGACGAAGGAGCCGCAAAGAATTTATTAAGGGATGAATAATCCCTCCATATAAATATCTCTCACTTATTTAAA	0.424
ACAGACGAAGGAGCCGCAAAGAAGTTATTAAGAGATGAATAATCCCTCAATATAAATAGCTCTCACTTATTTAAA	0.106
ACAGACGAAGGAGCCGCAAAGATGTTATTAAGGGATGAATAATCCCTCAATATATATATCTCTCACTTATTTAAA	0.975
ACAGACGAAGGAGCCGCAAAGAAGTTATTAAGGGCTGAATAATCCATCAATATAAATATCTCTCACTTATTTAAA	0.0979

Ask | Consider the sequence `ACAGACGAAGGAGCCGCAAAGAAGTTATTACGAGATGAATAATCCCTCAATATAAATATCTCTCACTTATTTAAA` tested on Bacillus subtilis; state its cleaved RNA product abundance.
Reply | 0.113

Ask | Consider the sequence `ACAGACGAAGGAGCCGCAAAGAAATTATTAAGGGATGAATAATCCCTCAATATAAATCTCTCTCACTTATTTAAA` tested on Bacillus subtilis; state its cleaved RNA product abundance.
Reply | 0.66

Ask | Consider the sequence `ACAGACGAAGGAGCCGCAAAGAAGTTATTAAGGGATAAATAATCCCTTAATATAAATATCTCTCACTTATTTAAA` tested on Bacillus subtilis; state its cleaved RNA product abundance.
Reply | 0.48

---

Measured cleaved RNA product abundance, listed per entry for reference.
- Test system: Bacillus subtilis
- TEST NAME: cleaved RNA product abundance (RNA/gDNA barcode ratio) relative to median wild-type variant (ratio to wild type); higher = more accumulation of the downstream cleavage product
- STUDY CONDITIONS: experiment (reporter, strain, medium): exp 4a: truncated aprE reporter, strain BJT201 with 2% xylose (RNase J1 expressed); cleavage site: cggR-gapA (positions -7 to +36 mutated)
Please respond with just the number, no unit label.

ACAGACGAAGGAGCCGCAAGGAAGTTATTAAGGGATAAATAATCCCTCAATATAAATATCTCTCACTTATTTAAA	0.919
ACAGACGAAGGAGCCGCAAAGATGTTATCAAGGGATGAATAATCCCTCAATATAAATATCTCTCACTTATTTAAA	0.328
ACAGACGAAGGAGCCGCAAAGAAGTTATTAAAGCATGAATAATCCCTCAATATAAATATCTCTCACTTATTTAAA	0.11
ACAGACGAAGGAGCCGCAAAGAAGTTATTAAGGGATGAATAATCATTCAATATAAATATCTCTCACTTATTTAAA	0.295
ACAGACGAAGGAGCCGCACAGAAGTTATTAAGGGATGAATAAACCCTCAATATAAATATCTCTCACTTATTTAAA	0.34

Ask | Consider the sequence `ACAGACGAAGGAGCCGCAAAGAACTTATTAAGGGATGAATAATTCCTCAATATAAATATCTCTCACTTATTTAAA` tested on Bacillus subtilis; state its cleaved RNA product abundance.
Reply | 0.32

Ask | Consider the sequence `ACAGACGAAGGAGCCGCAAAGAAGTTATTAAGGGATGAATAATCCCTCAAAATAGATATCTCTCACTTATTTAAA` tested on Bacillus subtilis; state its cleaved RNA product abundance.
Reply | 0.322
